Assay: Acute toxicity on zebrafish over a five-day regimen
Design: species or system zebrafish (Danio rerio)
Conditions: in vivo, other: added to the fish culture (immersion), calculated using the Benchmark Dose Software (BMDS)
Quantity name: LC50 at 5 days (µM)
Respond numerically; units are µM and should not be typed.

Data request: Write down LC50 at 5 days measured for item CCOC(=O)c1ccc(C2CC(c3cc4cc(OC)ccc4oc3=O)=NN2c2ccc(C(=O)OCC)cc2)cc1 (stereo not shown)
Data returned: 272
